tested on: PXR:RXRa (NR concentration 270 nM, RXRa partner concentration 90 nM); assay: PBM binding z-score (relative to random genomic background probes); higher = stronger binding; sequences stand for … in GC…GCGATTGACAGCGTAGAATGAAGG
Decide using PBM binding z-score: a value greater than or equal to 1 is YES, a smaller one is NO.

A selection of reference data follows.
AGTCAAAGTTCACTAGGTAACGTGAGATTCAGCT YES
CGTCCAAGGTGAAGGTCAGTGAAAGAGACTCGAA YES
GCCTATAGGTAATACAAGGTGAAAGTCCGATTGT NO

Kindly consider the entry below.
Could you verify whether the entry `CGTCCAAGGGCAGAGAGGTCAGTGAATGCCGAGT` shows PBM binding z-score of no less than 1?
YES
